This collection of values is drawn from ChEMBL document CHEMBL1961873.

// inhibition lookup, one value per entry
target: Serine/threonine-protein kinase 3 (Homo sapiens); settings: at 0.1 µM;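 further: reported value is the mean percent inhibition of MST2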

Task: # lookup: inhibition of CCCN1CCC(c2ccc(Nc3nc(Nc4cc(F)ccc4C(N)=O)c4cc[nH]c4n3)c(OC)c2)CC1
Result: 5.71%

Task: # lookup: inhibition of Cc1ccc2c(-c3ccnc(Nc4ccccc4)n3)c(-c3ccc(F)cc3)nn2n1
Result: 8.21%

Task: # lookup: inhibition of COC(=O)Nc1nc2ccc(S(=O)(=O)c3ccc(NC(=O)Nc4cc(C(F)(F)F)ccc4F)cc3)cc2[nH]1
Result: 4%

Task: # lookup: inhibition of O=S(=O)(CCNCc1ccc(-c2ccc3ncnc(Nc4ccc(OCc5cccc(F)c5)c(Cl)c4)c3c2)o1)c1ccccc1
Result: 8.36%

Task: # lookup: inhibition of COc1cc(N2CCN(C(C)C)CC2)ccc1Nc1nc(Nc2ccc(F)cc2C(N)=O)c2cc[nH]c2n1
Result: 4.27%

Task: # lookup: inhibition of CCn1c(-c2nonc2N)nc2ccccc21
Result: 6.31%

More entries:
Task: # lookup: inhibition of CCN(CC)S(=O)(=O)c1ccc(OC)c(Nc2ncc(-c3ccccc3)o2)c1
Result: 7%

Task: # lookup: inhibition of Cc1ccc(O)cc1Nc1ccnc2cc(-c3ccccn3)ccc12
Result: 8.56%

Task: # lookup: inhibition of CS(=O)(=O)CCNCc1ccc(-c2ccc3ncnc(Nc4ccc(OCc5ccccc5)c(C(F)(F)F)c4)c3c2)o1
Result: 4.04%

Task: # lookup: inhibition of COc1ccc(-c2cc3c(N)ncnc3o2)cc1
Result: -3.02%
